Record form. Attribute: IC50. Fill in for each entry.
biological target: rat brain cortical membranes ([35S]-TBPS binding, GABA receptor complex); assay: Steroid inhibition of [35S]-TBPS binding; details: in the presence of 5 μM GABA, read-out: 35S-TBPS Radioligand Displacement (IC50)

QUERY: What is its IC50 for rat brain cortical membranes ([35S]-TBPS binding, GABA receptor complex)? Entry: `C[C@@H](C(=O)[C@H]1CC[C@H]2[C@@H]3CC[C@@H]4C[C@](C)(O)CC[C@]4(C)[C@H]3CC[C@]12C)n1nnc2ccccc21`
RESULT: 10 to 50 nM

QUERY: What is its IC50 for rat brain cortical membranes ([35S]-TBPS binding, GABA receptor complex)? Entry: `CC(C)(C(=O)[C@H]1CC[C@H]2[C@@H]3CC[C@H]4C[C@](C)(O)CC[C@]4(C)[C@H]3CC[C@]12C)n1nnc2ccccc21`
RESULT: > 500 nM

QUERY: What is its IC50 for rat brain cortical membranes ([35S]-TBPS binding, GABA receptor complex)? Entry: `C[C@@]1(O)CC[C@@]2(C)[C@H](CC[C@@H]3[C@@H]2CC[C@]2(C)[C@@H](C(=O)Cn4nc5ccc(S(C)(=O)=O)cc5n4)CC[C@@H]32)C1`
RESULT: < 10 nM

QUERY: What is its IC50 for rat brain cortical membranes ([35S]-TBPS binding, GABA receptor complex)? Entry: `C[C@H](C(=O)[C@H]1CC[C@H]2[C@@H]3CC[C@H]4C[C@](C)(O)CC[C@]4(C)[C@H]3CC[C@]12C)n1nnc2ccccc21`
RESULT: > 500 nM

QUERY: What is its IC50 for rat brain cortical membranes ([35S]-TBPS binding, GABA receptor complex)? Entry: `C[C@@]1(O)CC[C@@]2(C)[C@@H](CC[C@@H]3[C@@H]2CC[C@]2(C)[C@@H](C(=O)Cn4nc5cccc(F)c5n4)CC[C@@H]32)C1`
RESULT: < 10 nM

QUERY: What is its IC50 for rat brain cortical membranes ([35S]-TBPS binding, GABA receptor complex)? Entry: `C[C@H](C(=O)[C@H]1CC[C@H]2[C@@H]3CC[C@H]4C[C@](C)(O)CC[C@]4(C)[C@H]3CC[C@]12C)n1nccn1`
RESULT: > 500 nM

QUERY: What is its IC50 for rat brain cortical membranes ([35S]-TBPS binding, GABA receptor complex)? Entry: `CN(C)C(=O)c1cnn(CC(=O)[C@H]2CC[C@H]3[C@@H]4CC[C@H]5C[C@](C)(O)CC[C@]5(C)[C@H]4CC[C@]23C)c1`
RESULT: < 10 nM

QUERY: What is its IC50 for rat brain cortical membranes ([35S]-TBPS binding, GABA receptor complex)? Entry: `C[C@@H](C(=O)[C@H]1CC[C@H]2[C@@H]3CC[C@H]4C[C@](C)(O)CC[C@]4(C)[C@H]3CC[C@]12C)n1cc(C#N)cn1`
RESULT: 10 to 50 nM

QUERY: What is its IC50 for rat brain cortical membranes ([35S]-TBPS binding, GABA receptor complex)? Entry: `C[C@H](C(=O)[C@H]1CC[C@H]2[C@@H]3CC[C@H]4C[C@](C)(O)CC[C@]4(C)[C@H]3CC[C@]12C)n1cc(C#N)cn1`
RESULT: 100 to 500 nM

QUERY: What is its IC50 for rat brain cortical membranes ([35S]-TBPS binding, GABA receptor complex)? Entry: `C[C@H](C(=O)[C@H]1CC[C@H]2[C@@H]3CC[C@H]4C[C@](C)(O)CC[C@]4(C)[C@H]3CC[C@]12C)n1ccnn1`
RESULT: > 500 nM

QUERY: What is its IC50 for rat brain cortical membranes ([35S]-TBPS binding, GABA receptor complex)? Entry: `C[C@@]1(O)CC[C@@]2(C)[C@H](CC[C@@H]3[C@@H]2CC[C@]2(C)[C@@H](C(=O)Cn4cc(C#N)cn4)CC[C@@H]32)C1`
RESULT: < 10 nM

QUERY: What is its IC50 for rat brain cortical membranes ([35S]-TBPS binding, GABA receptor complex)? Entry: CC(C(=O)[C@H]1CC[C@H]2[C@@H]3CC[C@H]4C[C@](C)(O)CC[C@]4(C)[C@H]3CC[C@]12C)N1CCOCC1 (stereo partly shown)
RESULT: > 500 nM

QUERY: What is its IC50 for rat brain cortical membranes ([35S]-TBPS binding, GABA receptor complex)? Entry: `C[C@H](C(=O)[C@H]1CC[C@H]2[C@@H]3CC[C@@H]4C[C@](C)(O)CC[C@]4(C)[C@H]3CC[C@]12C)n1ccnn1`
RESULT: > 500 nM
